- System: 598228-144-R-J1-PDC complex spheroids, viability
- assay_remarks: Anticancer human tumor 598228-144-R-J1-PDC patient-derived serous endometrial adenocarcinoma cell line growth inhibition [CLK]
- condition_notes: second compound 10 µM; first compound 0.3 µM; hits give low values
- Excerpt: A high-throughput screen of multi-cell type tumor spheroids was designed to identify active combinations of […] and targeted small molecules. Complex spheroids include a stromal component modeled by human endothelial cells (HUVEC) and fibroblasts modeled by human mesenchymal stem cells (MSCs). […] Compounds. […] If the clinical Cmax for an agent had not been determined, the highest concentration tested was 10 microM. […]
Field: label. Allowed values: true (1) (viability, T/C < 3%) or false (0) (viability, T/C >= 3%).

>  <compound>
C=CC(=O)Nc1cc(Nc2nccc(-c3cn(C)c4ccccc34)n2)c(OC)cc1N(C)CCN(C)C + CN1CCN(c2cc(C(=O)Nc3cc4cc(-c5cnn(C)c5)ccc4cn3)ccn2)CC1

>  <test_target>
598228-144-R-J1-PDC complex spheroids, viability

>  <category_label>
true (1)

$$$$
>  <compound>
NC(=O)C(=Cn1cnc(-c2cc(C(F)(F)F)cc(C(F)(F)F)c2)n1)c1cncnc1 + CN1CCN(c2cc(C(=O)Nc3cc4cc(-c5cnn(C)c5)ccc4cn3)ccn2)CC1

>  <test_target>
598228-144-R-J1-PDC complex spheroids, viability

>  <category_label>
true (1)

$$$$
>  <compound>
CC(C)CC(NC(=O)C(Cc1ccccc1)NC(=O)c1cnccn1)B(O)O (stereo unspecified) + CN1CCN(c2cc(C(=O)Nc3cc4cc(-c5cnn(C)c5)ccc4cn3)ccn2)CC1

>  <test_target>
598228-144-R-J1-PDC complex spheroids, viability;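 note: spheroids exposed to compounds for seven days before readout; 100% = DMSO vehicle control wells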

>  <category_label>
false (0)

$$$$
>  <compound>
CC(C)CC(NC(=O)C(Cc1ccccc1)NC(=O)c1cnccn1)B(O)O (stereo unspecified) + CNC(=O)c1ccc(Nc2nc(OC3CCCC3)c3c(-c4ccc5nc(C)oc5c4)c[nH]c3n2)c(OC)c1

>  <test_target>
598228-144-R-J1-PDC complex spheroids, viability;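 note: spheroids exposed to compounds for seven days before readout; 100% = DMSO vehicle control wells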

>  <category_label>
true (1)

$$$$
>  <compound>
NC(=O)C(=Cn1cnc(-c2cc(C(F)(F)F)cc(C(F)(F)F)c2)n1)c1cncnc1 + CNC(=O)c1ccc(Nc2nc(OC3CCCC3)c3c(-c4ccc5nc(C)oc5c4)c[nH]c3n2)c(OC)c1

>  <test_target>
598228-144-R-J1-PDC complex spheroids, viability;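 note: spheroids exposed to compounds for seven days before readout; 100% = DMSO vehicle control wells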

>  <category_label>
false (0)

$$$$
>  <compound>
C=CC(=O)Nc1cc(Nc2nccc(-c3cn(C)c4ccccc34)n2)c(OC)cc1N(C)CCN(C)C + CNC(=O)c1ccc(Nc2nc(OC3CCCC3)c3c(-c4ccc5nc(C)oc5c4)c[nH]c3n2)c(OC)c1

>  <test_target>
598228-144-R-J1-PDC complex spheroids, viability;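 note: spheroids exposed to compounds for seven days before readout; 100% = DMSO vehicle control wells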

>  <category_label>
false (0)

$$$$
